These entries and their values trace back to ChEMBL document CHEMBL1201862.

Recorded IC50 for the following compounds
Target: Voltage-gated N-type calcium channel alpha-1B subunit/Amyloid beta A4 precursor protein-binding family A member 1 (Homo sapiens, UniProt Q00975+Q02410)
Sequence (Q00975 whole entry): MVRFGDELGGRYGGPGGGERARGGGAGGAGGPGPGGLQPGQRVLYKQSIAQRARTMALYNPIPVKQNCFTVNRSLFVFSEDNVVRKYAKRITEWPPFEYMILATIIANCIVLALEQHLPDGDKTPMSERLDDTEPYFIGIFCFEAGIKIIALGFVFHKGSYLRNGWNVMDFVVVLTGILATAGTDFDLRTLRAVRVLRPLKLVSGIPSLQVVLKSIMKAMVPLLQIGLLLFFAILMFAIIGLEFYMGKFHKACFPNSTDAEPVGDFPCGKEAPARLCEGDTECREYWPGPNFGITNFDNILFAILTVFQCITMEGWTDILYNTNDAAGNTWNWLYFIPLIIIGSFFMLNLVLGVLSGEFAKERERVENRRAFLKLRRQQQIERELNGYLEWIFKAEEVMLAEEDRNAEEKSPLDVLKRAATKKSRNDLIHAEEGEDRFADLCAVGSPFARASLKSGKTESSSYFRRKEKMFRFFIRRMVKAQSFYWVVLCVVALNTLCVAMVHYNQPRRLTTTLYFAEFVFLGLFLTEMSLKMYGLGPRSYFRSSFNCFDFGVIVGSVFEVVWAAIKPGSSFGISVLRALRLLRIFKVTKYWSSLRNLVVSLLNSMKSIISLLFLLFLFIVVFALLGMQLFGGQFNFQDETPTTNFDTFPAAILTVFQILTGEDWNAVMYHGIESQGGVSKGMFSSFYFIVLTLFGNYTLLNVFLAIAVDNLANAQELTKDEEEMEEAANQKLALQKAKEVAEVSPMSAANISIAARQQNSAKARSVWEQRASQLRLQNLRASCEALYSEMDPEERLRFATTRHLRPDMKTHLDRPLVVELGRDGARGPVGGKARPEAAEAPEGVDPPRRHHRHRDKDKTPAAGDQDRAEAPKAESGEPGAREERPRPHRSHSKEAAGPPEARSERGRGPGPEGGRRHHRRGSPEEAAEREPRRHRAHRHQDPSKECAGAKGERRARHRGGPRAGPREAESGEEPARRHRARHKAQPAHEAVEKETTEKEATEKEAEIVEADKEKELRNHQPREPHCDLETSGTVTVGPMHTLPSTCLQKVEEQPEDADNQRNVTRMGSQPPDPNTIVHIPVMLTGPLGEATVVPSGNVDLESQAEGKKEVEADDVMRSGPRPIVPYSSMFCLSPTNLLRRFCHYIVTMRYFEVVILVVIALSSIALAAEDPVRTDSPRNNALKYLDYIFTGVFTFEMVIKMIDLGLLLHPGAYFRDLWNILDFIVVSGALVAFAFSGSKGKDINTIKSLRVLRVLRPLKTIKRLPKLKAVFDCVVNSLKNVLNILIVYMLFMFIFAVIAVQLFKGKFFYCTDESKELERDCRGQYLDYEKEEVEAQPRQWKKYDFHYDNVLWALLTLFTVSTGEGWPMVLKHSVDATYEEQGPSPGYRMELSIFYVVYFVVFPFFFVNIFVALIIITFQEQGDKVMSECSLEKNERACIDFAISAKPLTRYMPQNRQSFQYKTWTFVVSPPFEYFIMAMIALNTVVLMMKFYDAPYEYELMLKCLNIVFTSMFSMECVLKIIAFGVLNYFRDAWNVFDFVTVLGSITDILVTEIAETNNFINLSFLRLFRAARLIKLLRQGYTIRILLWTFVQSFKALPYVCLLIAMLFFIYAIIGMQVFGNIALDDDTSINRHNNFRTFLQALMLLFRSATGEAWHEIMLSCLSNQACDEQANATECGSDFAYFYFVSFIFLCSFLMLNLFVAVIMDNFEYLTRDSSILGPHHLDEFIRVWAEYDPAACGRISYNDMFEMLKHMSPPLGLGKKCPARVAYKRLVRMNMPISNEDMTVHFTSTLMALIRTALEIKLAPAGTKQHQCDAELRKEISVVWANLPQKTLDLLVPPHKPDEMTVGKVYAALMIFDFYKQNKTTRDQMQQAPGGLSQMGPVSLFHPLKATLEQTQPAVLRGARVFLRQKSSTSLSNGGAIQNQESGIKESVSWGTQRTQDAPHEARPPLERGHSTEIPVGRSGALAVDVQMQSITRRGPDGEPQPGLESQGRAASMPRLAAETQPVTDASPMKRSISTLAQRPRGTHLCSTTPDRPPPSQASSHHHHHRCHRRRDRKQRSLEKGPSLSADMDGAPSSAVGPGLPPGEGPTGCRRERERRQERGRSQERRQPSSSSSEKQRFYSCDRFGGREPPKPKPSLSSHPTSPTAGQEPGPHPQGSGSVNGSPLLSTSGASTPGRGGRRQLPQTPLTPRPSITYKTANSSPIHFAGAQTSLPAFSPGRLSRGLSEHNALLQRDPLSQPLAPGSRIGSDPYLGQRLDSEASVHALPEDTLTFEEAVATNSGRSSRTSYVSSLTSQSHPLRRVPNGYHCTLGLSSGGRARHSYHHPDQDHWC
Sequence (Q02410 whole entry): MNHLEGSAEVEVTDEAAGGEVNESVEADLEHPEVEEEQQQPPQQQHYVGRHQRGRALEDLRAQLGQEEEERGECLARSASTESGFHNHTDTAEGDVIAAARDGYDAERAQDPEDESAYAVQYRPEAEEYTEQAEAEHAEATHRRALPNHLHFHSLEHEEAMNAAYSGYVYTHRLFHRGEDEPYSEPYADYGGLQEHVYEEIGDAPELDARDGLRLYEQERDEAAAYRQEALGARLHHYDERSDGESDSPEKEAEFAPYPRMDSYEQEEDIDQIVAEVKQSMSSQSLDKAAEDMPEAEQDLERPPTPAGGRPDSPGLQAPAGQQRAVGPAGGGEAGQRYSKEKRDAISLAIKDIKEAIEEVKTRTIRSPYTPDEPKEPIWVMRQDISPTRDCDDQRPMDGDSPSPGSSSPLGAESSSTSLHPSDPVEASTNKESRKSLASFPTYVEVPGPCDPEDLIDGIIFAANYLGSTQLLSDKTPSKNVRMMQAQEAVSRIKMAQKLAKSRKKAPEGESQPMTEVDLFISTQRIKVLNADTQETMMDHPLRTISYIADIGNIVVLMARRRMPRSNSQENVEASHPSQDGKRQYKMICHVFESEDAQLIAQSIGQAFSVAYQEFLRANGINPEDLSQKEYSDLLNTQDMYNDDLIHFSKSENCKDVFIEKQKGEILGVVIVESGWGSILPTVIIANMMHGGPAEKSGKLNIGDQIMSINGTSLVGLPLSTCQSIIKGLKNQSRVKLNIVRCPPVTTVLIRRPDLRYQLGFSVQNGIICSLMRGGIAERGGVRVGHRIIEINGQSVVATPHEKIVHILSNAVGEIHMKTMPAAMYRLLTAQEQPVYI
Format: protein assay
Activity calls are given as the source filed them.
QUANTITY: IC50

INSERT INTO measurements (compound, quantity, reported_value) VALUES
  ('COC/C=C/C1=CC2=CC(=O)C(C)(OC(=O)c3cnc4ccccc4n3)C(=O)C2=CN1c1ccc(CO)cc1 (centres undefined)', 'IC50', '10.4 µM (active)'),
  ('Cc1cccc(NC(=S)NC2CCCCC2)n1', 'IC50', '9.58 µM (active)'),
  ('C/C=C/C=C\C(=O)Nc1cccc(C2=NOC3(C2)C[C@H](C(N)=O)N(C(=O)/C=C/C)C3)c1 (some centres undefined)', 'IC50', '9.88 µM (active)'),
  ('COc1ccc(/C=C2\SC(=S)N(CC(=O)NNC(=O)c3ccncc3)C2=O)cc1', 'IC50', '> 56.8 µM (not active)');
